Measured on: Amine oxidase [flavin-containing] A (Homo sapiens, UniProt P21397)
Sequence (P21397 whole entry): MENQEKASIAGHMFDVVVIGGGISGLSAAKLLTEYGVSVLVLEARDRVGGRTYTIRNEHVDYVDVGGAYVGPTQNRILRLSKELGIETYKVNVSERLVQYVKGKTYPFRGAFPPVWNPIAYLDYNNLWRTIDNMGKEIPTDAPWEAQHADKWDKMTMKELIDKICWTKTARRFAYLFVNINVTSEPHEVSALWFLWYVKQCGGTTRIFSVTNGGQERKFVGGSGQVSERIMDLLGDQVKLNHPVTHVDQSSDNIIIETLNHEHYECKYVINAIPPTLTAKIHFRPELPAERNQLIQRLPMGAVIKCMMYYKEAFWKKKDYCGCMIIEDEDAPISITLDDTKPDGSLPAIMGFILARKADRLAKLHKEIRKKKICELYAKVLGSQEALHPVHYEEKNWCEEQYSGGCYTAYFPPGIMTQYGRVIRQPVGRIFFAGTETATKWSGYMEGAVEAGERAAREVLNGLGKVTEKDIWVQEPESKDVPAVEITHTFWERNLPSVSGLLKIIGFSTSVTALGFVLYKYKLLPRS
Test: Inhibition of human recombinant MAO-A at 10 uM using tyramine as substrate preincubated with enzyme for 30 mins followed by incubation with substrate for 30 mins by Amplex Red reagent based fluorometric method relative to control
Measurement parameters: 0.5 h, time 60 min
Binary call on inhibition at 10 µM: Condition met from 80% upward, Condition not met beneath that.

Compound: C=CCNc1nnc(SCC(=O)N(Cc2cccc([N+](=O)[O-])c2)c2ccc(F)cc2)s1
Measured on: Amine oxidase [flavin-containing] A (Homo sapiens, UniProt P21397)
Label value: Condition not met
--
Compound: CC(C)CNc1nnc(SCC(=O)N(Cc2cccc([N+](=O)[O-])c2)c2ccc(F)cc2)s1
Measured on: Amine oxidase [flavin-containing] A (Homo sapiens, UniProt P21397)
Label value: Condition not met
--
Compound: O=C(NCCN1CCOCC1)c1ccc(Cl)cc1 [MOCLOBEMIDE]
Measured on: Amine oxidase [flavin-containing] A (Homo sapiens, UniProt P21397)
Label value: Condition not met
--
Compound: CCCCNc1nnc(SCC(=O)N(Cc2cccc([N+](=O)[O-])c2)c2ccc(F)cc2)s1
Measured on: Amine oxidase [flavin-containing] A (Homo sapiens, UniProt P21397)
Label value: Condition not met
--
Compound: CC(C)Nc1nnc(SCC(=O)N(Cc2cccc([N+](=O)[O-])c2)c2ccc(F)cc2)s1
Measured on: Amine oxidase [flavin-containing] A (Homo sapiens, UniProt P21397)
Label value: Condition met
--
Compound: CCNc1nnc(SCC(=O)N(Cc2cccc([N+](=O)[O-])c2)c2ccc(F)cc2)s1
Measured on: Amine oxidase [flavin-containing] A (Homo sapiens, UniProt P21397)
Label value: Condition not met
--
Compound: C#CCN(C)CCCOc1ccc(Cl)cc1Cl
Measured on: Amine oxidase [flavin-containing] A (Homo sapiens, UniProt P21397)
Label value: Condition met

----------
Measured on: Amine oxidase [flavin-containing] A (Homo sapiens)
Test: Inhibition of human recombinant MAO-A at 100 uM using tyramine as substrate preincubated with enzyme for 30 mins followed by incubation with substrate for 30 mins by Amplex Red reagent based fluorometric method relative to control
Measurement parameters: 0.5 h, time 60 min
Parameter measured: inhibition at 100 µM (%)

Compound: CC(C)CNc1nnc(SCC(=O)N(Cc2cccc([N+](=O)[O-])c2)c2ccc(F)cc2)s1
Recorded measurement: 84.3
//
Compound: O=C(NCCN1CCOCC1)c1ccc(Cl)cc1 [MOCLOBEMIDE]
Recorded measurement: 83.1
//
Compound: CCCNc1nnc(SCC(=O)N(Cc2cccc([N+](=O)[O-])c2)c2ccc(F)cc2)s1
Recorded measurement: 91.1
//
Compound: C#CCN(C)CCCOc1ccc(Cl)cc1Cl
Recorded measurement: 92.1
//
Compound: O=C(CSc1nnc(Nc2ccccc2)s1)N(Cc1cccc([N+](=O)[O-])c1)c1ccc(F)cc1
Recorded measurement: 41.4
